testSummary: background-corrected fluorescence of 3'-dye-labeled ssDNA relative to brightest sequence (3'-GCGCG) (fraction); higher = brighter dye fluorescence (less quenching)
conditionContext: dye: Cy5 (3' terminal)
Below, each entry is listed alongside its reported background-corrected fluorescence.

chainSequence	background-corrected fluorescence
TTTTTGCATGATGCTGATCATTTTTTTTTTTTTTTTCACG [GCACT]	0.399
TTTTTTGATGCTGCTGATGCTTTTTTTTTTTTTTTCAACA [ACAAC]	0.368
TTTTTTGCTGCTGCTCAGCATTTTTTTTTTTTTTTAAAGT [TGAAA]	0.514
TTTTTGCAGCATGAGCAGCATTTTTTTTTTTTTTTTTCTT	0.348
TTTTTTCAGCAGCAGCATGATTTTTTTTTTTTTTTGTTTC [CTTTG]	0.306
TTTTTGCATGATCATCATGCTTTTTTTTTTTTTTTTCGGA [AGGCT]	0.648
TTTTTTCAGCATGATGCGCATTTTTTTTTTTTTTTGTCAT [TACTG]	0.39
TTTTTTGATCATGCTGCTGATTTTTTTTTTTTTTTCGAAC [CAAGC]	0.366
TTTTTGCAGCATGATGAGCATTTTTTTTTTTTTTTTTCCT [TCCTT]	0.325
TTTTTTCATGAGCATGCTGCTTTTTTTTTTTTTTTGCTAA [AATCG]	0.463
TTTTTTCATCATGATGATGCTTTTTTTTTTTTTTTGGCCA [ACCGG]	0.425
TTTTTTGCGCATGCGCAGCATTTTTTTTTTTTTTTATATT	0.392
